Entries and their inhibition in vivo values follow.
# Test system: Rattus norvegicus
# EXPERIMENT_DESCRIPTION: Antiinflammatory activity in Wistar rat assessed as inhibition of carrageenan-induced paw edema measured after 1 hr at 6 mg/kg, po equimolar dose of indomethacin administered 1 hr before carrageenan challenge
# Type: functional
Provide only the numeric value, understood in %.

Here's what some known entries look like.
# SAMPLE_SMILES, SYSTEM_UNDER_TEST, RESULT_NUMBER
records = [
    ("CCOC(=O)c1c(-c2ccccc2O)n(-c2ccc(C(=O)NNC(=O)CO[N+](=O)[O-])cc2)[nH]c1=O", "Rattus norvegicus", 27.8),
    ("CCOC(=O)c1c(-c2ccc(Cl)cc2)n(-c2ccc(C(=O)NNC(=O)CO[N+](=O)[O-])cc2)[nH]c1=O", "Rattus norvegicus", 3.2),
    ("O=C(CO[N+](=O)[O-])NNC(=O)c1ccc(-n2[nH]c(=O)cc2-c2ccc(Cl)cc2)cc1", "Rattus norvegicus", 5.88),
    ("O=C(CO[N+](=O)[O-])NNC(=O)c1ccc(-n2[nH]c(=O)cc2-c2ccc([N+](=O)[O-])cc2)cc1", "Rattus norvegicus", 23.6),
    ("CCOC(=O)c1c(-c2ccccc2)n(-c2ccc(C(=O)NNC(=O)CO[N+](=O)[O-])cc2)[nH]c1=O", "Rattus norvegicus", 54),
    ("O=C(CO[N+](=O)[O-])NNC(=O)c1ccc(-n2[nH]c(=O)cc2-c2ccccc2)cc1", "Rattus norvegicus", 19.8),
]

In: Request the reported inhibition in vivo associated with CCOC(=O)c1c(-c2ccccc2OC)n(-c2ccc(C(=O)NNC(=O)CO[N+](=O)[O-])cc2)[nH]c1=O
Out: 31

In: Request the reported inhibition in vivo associated with O=C(CO[N+](=O)[O-])NNC(=O)c1ccc(-n2[nH]c(=O)cc2-c2ccccc2O)cc1
Out: 23

In: Request the reported inhibition in vivo associated with CCOC(=O)c1c(-c2ccc([N+](=O)[O-])cc2)n(-c2ccc(C(=O)NNC(=O)CO[N+](=O)[O-])cc2)[nH]c1=O
Out: 27.8
